Origin of measurements: the supplement of paper PMC11208160

Assay: recombinant barcode read abundance after kanamycin selection (control-corrected) (log10(CPM+1)); higher = more efficient recombination; sequences stand for … in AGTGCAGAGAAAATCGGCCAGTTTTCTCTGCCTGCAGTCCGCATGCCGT…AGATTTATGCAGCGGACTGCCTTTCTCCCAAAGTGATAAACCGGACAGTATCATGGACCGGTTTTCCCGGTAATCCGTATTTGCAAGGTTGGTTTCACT; site = the 11-nt target;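 note: IS621 recombinase and bridge RNA in Escherichia coli cells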
Recorded Endpoint: recombinant barcode read abundance (log10)
Answers are plain numbers.

Example cases with answers are listed next.
TAACCTGCTTGGGTTCTAACCTGTTGCCT (site TAACCTACTAG)    0.532
ACACATACTTGGGTTCTAACCTGTTGCCT (site ACACATACTAG)    0.302
CCTACATCTTGGGTTCTAACCTGTTGCTA (site CCTACATCTTA)    0.0332
CATAAGCCTTGGGTTCTAACCTGTTGCCT (site CATTAGCCTAG)    0.0852
CTCTAGACTTGGGTTCTAACCTGTTGCCA (site CTCTAGACTTG)    0.69

Provide reported recombinant barcode read abundance (log10) for each item, in the same order as listed.
1. GCCAAACCTTGGGTTCTAACCTGTTGCCT (site GCCACACCTAG)
2. GACTCTCCTTGGGTTCTAACCTGTTGCCT (site GACTCTCCTAC)
3. TTCAAAACTTGGGTTCTAACCTGTTGCCT (site TTCAAAACTAG)
4. CTCACACCTTGGGTTCTAACCTGTTGCCT (site ATCACACCTAG)
5. GGTATGTCTTGGGTTCTAACCTGTTGCTG (site GGTATGTCTCA)

RESULT:
0.0741
0.0378
0.103
0.386
0.857

Provide reported recombinant barcode read abundance (log10) for each item, in the same order as listed.
1. AGGCTCCCTTGGGTTCTAACCTGTTGCCT (site AGTCTCCCTAG)
2. CTCGGAGCTTGGGTTCTAACCTGTTGCCG (site CTCGGATCTTG)

RESULT:
1. 0.619
2. 0.47

Hi! Can you tell me recombinant barcode read abundance (log10) for each of these sequences?
1. CATCGAGCTTGGGTTCTAACCTGTTGCCG (site CACCGAGCTCG)
2. TAGATGTCTTGGGTTCTAACCTGTTGCGG (site TAGATGTCTCC)
3. TAGCGGACTTGGGTTCTAACCTGTTGCAT (site TAGCGGTCTAG)
4. GAAGAGTCTTGGGTTCTAACCTGTTGCCT (site GCAGAGTCTAG)

RESULT:
[0.43, 2.43, 0.0826, 0.0703]

Can you give me recombinant barcode read abundance (log10) for all of these, one by one?
1. CTGCTGTCTTGGGTTCTAACCTGTTGCCA (site CTGTTGTCTTG)
2. CCACGGACTTGGGTTCTAACCTGTTGCCT (site CCAAGGACTAG)

RESULT:
[0.0953, 0.143]

Fill in recombinant barcode read abundance (log10) for each of the 3 sequences listed.
1. AGTCATACTTGGGTTCTAACCTGTTGCCT (site AGTCATACTAG)
2. GTAGCAGCTTGGGTTCTAACCTGTTGCTC (site CTAGTAGCTGA)
3. CGCTTACCTTGGGTTCTAACCTGTTGCCT (site CGCTTACCTAG)

RESULT:
0.232
0.146
0.0899
